Source listed as patent US20260028330A1.

In this section we review reported pIC50 values for a set of compounds.
- studySystem: UniProt Q9NQS5
- methodDescription: Gαi biosensor BRET assay in transfected HEK293 cells (antagonism of GPR84 agonist ZQ-16)
- conditionNotes: 200 nmol/L ZQ-16
pIC50: −log10 of the molar value.

compound	studySystem	pIC50
Cc1cc(C#CC2CC2)cc(C)c1N(C)C(=O)c1cn(CC2OCC3(CC3)CO2)nn1 [Compound I-60]	UniProt Q9NQS5	6.00 to 6.52
Cc1ccc(C#CC2CC2)cc1N(C(=O)c1cn(CC2OCC3(CC3)CO2)nn1)C(C)C [Compound I-86]	UniProt Q9NQS5	≥ 6.52
Cc1cc(C#CC2CC2)cc(F)c1N(C)C(=O)c1cn(CC2OCC3(CC3)CO2)nn1 [Compound I-32]	UniProt Q9NQS5	≥ 6.52
Cc1ccc(C#CC2CC2)c(F)c1N(C)C(=O)c1cn(CC2OCC3(CC3)CO2)nn1 [Compound I-37]	UniProt Q9NQS5	≥ 6.52

* * *

- studySystem: human GPR84 receptor (Homo sapiens, UniProt Q9NQS5)
- Construct: host or cells: HEK293 cells, transient transfection
- Sequence (Q9NQS5 whole entry): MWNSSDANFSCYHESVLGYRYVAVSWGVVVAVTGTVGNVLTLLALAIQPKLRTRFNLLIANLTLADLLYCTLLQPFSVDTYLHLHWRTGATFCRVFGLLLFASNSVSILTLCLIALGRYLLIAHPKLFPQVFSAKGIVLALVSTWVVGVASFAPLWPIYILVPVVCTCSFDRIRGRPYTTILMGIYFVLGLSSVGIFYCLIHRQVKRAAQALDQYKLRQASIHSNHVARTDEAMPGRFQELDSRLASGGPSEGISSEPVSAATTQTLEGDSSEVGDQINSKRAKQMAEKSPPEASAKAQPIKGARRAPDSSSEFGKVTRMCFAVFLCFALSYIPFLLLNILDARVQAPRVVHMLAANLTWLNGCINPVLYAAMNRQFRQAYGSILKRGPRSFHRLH
- methodDescription: Gαi biosensor BRET assay in transfected HEK293 cells (antagonism of GPR84 agonist ZQ-16)
- Type: cell-based
- conditionNotes: HEK293, single concentration, code F = 10 μM, 200 nmol/L ZQ-16
- Protocol: Background—The following assays can be used for determination of GPR84 activation in living HEK293 cells. […] Bioluminescence Resonance Energy Transfer (BRET) Measurement—HEK293 cells were transfected with GPR84-Rluc8 and rGFP-FYVE for the EEs trafficking biosensor or with GPR84, Gαi2-Rluc8, GFP10-Gγ2, and Gβ1 for the Gαi biosensor. […] The BRET signal was calculated as the ratio of light emitted by acceptor (GFP10, rGFP) over the light emitted by donor (Rluc8). […]
In this section we review reported inhibition at 10 µM values for a set of compounds.
assayReadout: inhibition at 10 µM

compound	assayReadout	measured
Cc1ccc(C#CC2CC2)c2c1N(C(=O)c1cn(CC3OCC4(CC4)CO3)nn1)CC2	inhibition at 10 µM	≤ 25%
Cc1cc(C#CC2CC2)ccc1C(=O)Nc1cn(CC2OCC3(CC3)CO2)nn1	inhibition at 10 µM	≤ 25%
Cc1ccc(C#CC2CC2)cc1N(C)C(=O)c1cn(CC(=O)N(C)C)nn1	inhibition at 10 µM	25 to 50%
Cc1ccc(C#CC2CC2)cc1N(C)C(=O)c1ncc(OCC(=O)N(C)C)cc1C	inhibition at 10 µM	≤ 25%
Cc1c(NC(=O)c2cccc(C#CC3CC3)c2)nnn1CC1OCC2(CC2)CO1	inhibition at 10 µM	≤ 25%
CN(C)c1cc(C#CC2CC2)ccc1N(C)C(=O)c1cn(CC2OCC3(CC3)CO2)nn1	inhibition at 10 µM	> 75%
Cc1ccc(C#CC2CC2)cc1N(C)C(=O)c1cn(CCC(=O)N(C)C)nn1	inhibition at 10 µM	≤ 25%
Cc1c(N(C)C(=O)c2ccc(C#CC3CC3)cc2)nnn1CC1OCC2(CC2)CO1	inhibition at 10 µM	50 to 75%
Cc1cc(C#CC2CC2)cc(C)c1NC(=O)c1cn(CC2OCC3(CC3)CO2)nn1	inhibition at 10 µM	≤ 25%
CN(C(=O)c1cn(CC2OCC3(CC3)CO2)nn1)c1cccc(C#CC2CC2)c1	inhibition at 10 µM	> 75%
Cc1ccc(C#CC2CC2)cc1N(C)Cc1cn(CC2OCC3(CC3)CO2)nn1	inhibition at 10 µM	25 to 50%
Cc1ccc(C#CC2CC2)cc1/N=C(\OC(C)C)c1cn(CC2OCC3(CC3)CO2)nn1	inhibition at 10 µM	> 75%
Cc1ccc(C#CC2CC2)cc1N(C)c1cn(CC(=O)N(C)C)nn1	inhibition at 10 µM	> 75%
COc1cc(C#CC2CC2)cc(NC(=O)c2cn(CC3OCC4(CC4)CO3)nn2)c1	inhibition at 10 µM	≤ 25%
O=C(c1cn(CC2OCC3(CC3)CO2)nn1)N(c1cc(C#CC2CC2)ccc1F)C1CC1	inhibition at 10 µM	> 75%
CN(C(=O)c1cn(CC2OCC3(CC3)CO2)nn1)c1cc(C#CC2CC2)ccc1O	inhibition at 10 µM	25 to 50%
Cc1cc(C#CC2CC2)ccc1/N=C(\OC(C)C)c1cn(CC2OCC3(CC3)CO2)nn1	inhibition at 10 µM	25 to 50%
O=C(Nc1cccc(C#CC2CC2)c1)c1cn(CC2OCC3(CC3)CO2)nn1	inhibition at 10 µM	≤ 25%
Cc1cc(C#CC2CC2)cc(F)c1N(C)C(=O)c1cn(CC2OCC3(CC3)CO2)nn1	inhibition at 10 µM	> 75%
Cc1cc(C#CC2CC2)cc2c1C(N(C)c1cn(CC3OCC4(CC4)CO3)nn1)CC2 (stereo not drawn)	inhibition at 10 µM	25 to 50%
CN(C)c1ccc(C#CC2CC2)cc1N(C)C(=O)c1cn(CC2OCC3(CC3)CO2)nn1	inhibition at 10 µM	> 75%
CN(c1cn(CC2OCC3(CC3)CO2)nn1)c1cc(C#CC2CC2)ccc1Cl	inhibition at 10 µM	> 75%
CN(c1ccc(C#CC2CC2)cc1)c1cn(CC2OCC(C)(C)CO2)nn1	inhibition at 10 µM	≤ 25%
Cc1ccc(C#CC2CC2)cc1Nc1cn(CC2OCC3(CC3)CO2)cn1	inhibition at 10 µM	≤ 25%
